study-system: recombinant aurora-2 kinase (Homo sapiens)
Sequence (O14965 whole entry): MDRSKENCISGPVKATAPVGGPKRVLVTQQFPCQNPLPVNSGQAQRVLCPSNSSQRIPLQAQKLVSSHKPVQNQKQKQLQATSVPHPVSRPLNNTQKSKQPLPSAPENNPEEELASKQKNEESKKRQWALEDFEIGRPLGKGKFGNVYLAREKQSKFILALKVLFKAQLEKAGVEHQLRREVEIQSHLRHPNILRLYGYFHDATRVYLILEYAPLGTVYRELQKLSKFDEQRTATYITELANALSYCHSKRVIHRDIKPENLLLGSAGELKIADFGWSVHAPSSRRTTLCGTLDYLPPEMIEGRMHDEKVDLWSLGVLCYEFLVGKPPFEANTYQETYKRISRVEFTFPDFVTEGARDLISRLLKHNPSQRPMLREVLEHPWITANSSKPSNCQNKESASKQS
experimental-protocol: aurora-2 kinase inhibition assay (Kinase-Glo, ATP remaining)
condition-label: Example 20, Table 2; 3 μM ATP, 62.5 μM Kemptide, 30° C., two hours; read-out: IC50 A2K
pIC50: −log10 of the molar value.

compound: COc1cc2[nH]c3ncnc(N4CCN(C(=S)Nc5ccc(S(=O)(=O)NC(C)=O)cc5)CC4)c3c2cc1OC [Compound 2]
pIC50: 8.30
